Details: 298.2 K; 101.3 kPa; Liquid; Buoyancy - hydrostatic balance
value_type: mass density (kg/m3)
# unit: kg/m3 | format: bare number

Below: 5 molecules and their reported mass density.
molecule | mass density / kg/m3
O [water] | 997.2
Cc1cccc(O)c1 [3-methylphenol] | 1034.5
CCCCOC(C)=O [butyl ethanoate] | 882.2
CO [methanol] | 791
Cc1cc(C)cc(C)c1 [1,3,5-trimethylbenzene] | 864

From here, focus on the item given below.
Input line: Tell me the measured mass density of CC(=O)CC(C)C [4-methylpentan-2-one] , please.
Output line: 799.8
